Assay: Headspace above the washing powder: relative partition parameter (SPME-GC)
Assay type: physicochemical
Details: log of amount in headspace relative to amount in washing powder; 0.5% odorant mixture, SPME 15 min
Measured Activity (logarithmic partition parameter above washing powder) values are reported for all entries that follow.
The answer should be written as a number, with no unit following it.

[[record]]
molecule = "CC(=O)OC(C)c1ccccc1 (stereo not shown) [Styrolyl acetate]"
recorded_value = 0.246

[[record]]
molecule = "C=C1CCC2CC1C2(C)C (stereo not shown)"
recorded_value = 0.415

[[record]]
molecule = "CC(C)CCOC(=O)c1ccccc1O [Isoamyl salicylate]"
recorded_value = "−1.467"

[[record]]
molecule = "O=C(OCc1ccccc1)c1ccccc1O [Benzyl salicylate]"
recorded_value = "−2.349"

[[record]]
molecule = "CC(C)=CCCC(C)CCO (stereo not shown)"
recorded_value = "−0.780"


Need Activity (logarithmic partition parameter above washing powder), item OCCc1ccccc1
−0.176

Need Activity (logarithmic partition parameter above washing powder), item OCc1ccccc1
−0.389

Need Activity (logarithmic partition parameter above washing powder), item CC(C)=CCC/C(C)=C/CO
−0.976

Need Activity (logarithmic partition parameter above washing powder), item CC(C=O)Cc1ccc(C(C)(C)C)cc1 (stereo not shown)
−1.448

Need Activity (logarithmic partition parameter above washing powder), item C=CCc1ccc(O)c(OC)c1
−1.440

Need Activity (logarithmic partition parameter above washing powder), item C[C@@H]1CC[C@H]2C(C)(C)[C@H]3C[C@@]12CC[C@@]3(C)O
−1.547

Need Activity (logarithmic partition parameter above washing powder), item CCCCCC/C(C=O)=C\c1ccccc1
−1.559

Need Activity (logarithmic partition parameter above washing powder), item C=CC(C)CCCC(C)(C)O (stereo not shown) [Dihydromyrcenol]
0.184

Need Activity (logarithmic partition parameter above washing powder), item CC(=O)O[C@@H]1C[C@H]2CC[C@]1(C)C2(C)C (racemic) [Isobornyl acetate]
0.061

Need Activity (logarithmic partition parameter above washing powder), item CC(CC=O)CCCC(C)(C)O (stereo not shown) [Hydroxycitronellal]
−1.609

Need Activity (logarithmic partition parameter above washing powder), item CC(=O)/C=C/C1=C(C)CCCC1(C)C
−0.778

Need Activity (logarithmic partition parameter above washing powder), item CC(=O)OC(C)(C)Cc1ccccc1 [DMBCA, dimethylbenzylcarbinyl acetate]
−0.041

Need Activity (logarithmic partition parameter above washing powder), item C=CC(C)(O)CCC=C(C)C (stereo not shown)
0.057
